The following compounds are shown together with reported IC50 values.
Molecular target: Dual specificity mitogen-activated protein kinase kinase 7 (Homo sapiens, UniProt O14733)
Assay: Inhibition of GST-tagged human MKK7 expressed in Escherichia coli (BL21(DE3) pLysS) co-expressing human MEKK catalytic domain using biotinylated and GST-tagged rat GST-KN-SAPKalpha substrate incubated for 1 hr by time-resolved fluorescence based assay
endpoint: IC50

1) NCCNc1ncnc2[nH]c3ccc(O)cc3c12
< 1 µM
2) CC(CO)Nc1ncnc2[nH]c3ccc(C(N)=O)cc3c12 (stereo not drawn)
< 1 µM
3) NC(=O)c1ccc2[nH]c3ncnc(NC4CCCCC4)c3c2c1
< 1 µM

---

The following compounds are shown together with reported pIC50 values.
Biological target: Dual specificity mitogen-activated protein kinase kinase 7 (Homo sapiens, UniProt O14733)
Sequence (O14733 whole entry): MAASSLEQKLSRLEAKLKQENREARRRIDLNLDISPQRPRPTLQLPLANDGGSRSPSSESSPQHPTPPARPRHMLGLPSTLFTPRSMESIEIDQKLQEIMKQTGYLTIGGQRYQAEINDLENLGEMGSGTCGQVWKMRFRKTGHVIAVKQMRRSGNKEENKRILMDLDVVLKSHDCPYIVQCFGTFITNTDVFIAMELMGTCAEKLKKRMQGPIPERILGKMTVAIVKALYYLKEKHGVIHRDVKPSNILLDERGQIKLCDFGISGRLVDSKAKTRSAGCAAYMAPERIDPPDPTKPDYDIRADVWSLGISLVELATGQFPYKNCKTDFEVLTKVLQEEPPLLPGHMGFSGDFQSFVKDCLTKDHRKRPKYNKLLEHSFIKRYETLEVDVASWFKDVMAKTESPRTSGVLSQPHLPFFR
Assay: Inhibition of GST-tagged human MKK7 expressed in Escherichia coli (BL21(DE3) pLysS) co-expressing human MEKK catalytic domain using biotinylated and GST-tagged rat GST-KN-SAPKalpha substrate incubated for 1 hr by time-resolved fluorescence based assay
pIC50: −log10 of the molar value.
endpoint: pIC50

1. Cc1nc(N2CCCC(CO)C2)c2c(n1)[nH]c1ccc(O)cc12 (centres undefined)
> 6.00
2. NC(=O)C1CCCN(c2ncnc3[nH]c4ccc(O)cc4c23)C1 (centres undefined)
> 6.00
3. NC(=O)c1ccc2[nH]c3ncnc(N4CCCCC4)c3c2c1
> 6.00
4. Oc1ccc2[nH]c3ncnc(NC4CCCC4)c3c2c1
> 6.00
5. Nc1nc(N2CCCCC2)c2c(n1)[nH]c1ccc(C(=O)O)cc12
> 6.00
6. Cc1nc(N2CCCC(O)C2)c2c(n1)[nH]c1ccc(O)cc12 (centres undefined)
> 6.00
7. C[C@@H](CO)Nc1ncnc2[nH]c3ccc(O)cc3c12
> 6.00
8. Cc1nc(N2CCCCC2)c2c(n1)[nH]c1ccc(O)cc12
> 6.00
9. Oc1ccc2[nH]c3ncnc(N4CCCC4)c3c2c1
> 6.00
10. COc1cc2[nH]c3nc(N)nc(N4CCOCC4)c3c2cc1OC
6.00
11. CN(CCO)c1ncnc2[nH]c3ccc(O)cc3c12
> 6.00
12. COC(=O)c1ccc2[nH]c3nc(C)nc(N4CCCCC4)c3c2c1
> 6.00
13. Cc1nc(N2CCCC(C)C2)c2c(n1)[nH]c1ccc(O)cc12 (centres undefined)
6.00
14. Nc1nc(N2CCCCC2)c2c(n1)[nH]c1ccc(Cl)cc12
6.00

Just for reference, ChEMBL document CHEMBL3714742 is where these values come from.
